This collection of values is drawn from patent US12421254B2.

tested_system: GST-tagged KRAS-G12V (2-169) (Homo sapiens, UniProt P01116, G12V)
Sequence (P01116 2-169 isoform P01116-2 G12V): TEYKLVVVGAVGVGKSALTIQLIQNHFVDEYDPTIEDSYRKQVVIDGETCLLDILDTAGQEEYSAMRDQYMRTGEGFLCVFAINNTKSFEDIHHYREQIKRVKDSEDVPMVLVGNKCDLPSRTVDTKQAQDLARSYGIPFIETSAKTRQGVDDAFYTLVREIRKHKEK
assay_explanation: Nucleotide exchange assay (NEA), SOS-mediated, HTRF, KRAS G12V
experimental_parameters: Table 4; IC50 extracted at 90 min; 80 nM SOS
pIC50: −log10 of the molar value.
observation_type: pIC50

| compound | observation_type | reported_value |
| --- | --- | --- |
| CC1(O)COCCN(c2nc(OC[C@@]34CCCN3C[C@H](F)C4)nc(N3CC4(C3)SCc3sc(N)c(C#N)c34)n2)C1 (stereo partly drawn) | pIC50 | > 8.00 |
| N#Cc1c(N)sc2c1C1(CN(c3nc(OC[C@@]45CCCN4C[C@H](F)C5)nc(Oc4ccnnc4)n3)C1)SC2 | pIC50 | 6.00 to 7.00 |
| CO/N=C(\C(C)=O)C(=O)N1[C@@H]2CC[C@H]1CN(c1nc(OC[C@@]34CCCN3C[C@H](F)C4)nc(N3CC4(C3)SCc3sc(N)c(C#N)c34)n1)C2 | pIC50 | 6.00 to 7.00 |
| CC(c1cccnc1N)N(CCC#N)c1nc(OC[C@@]23CCCN2C[C@H](F)C3)nc(N2CC3(CCc4sc(N)c(C#N)c43)C2)n1 (stereo partly drawn) | pIC50 | > 8.00 |
| N#Cc1c(N)sc2c1C1(CN(c3nc(OCC45CCCN4CC(F)C5)nc(N4C5CCC4C(O)C5)n3)C1)SC2 (mixture of isomers) | pIC50 | 7.00 to 8.00 |
| C[C@@]1(O)CCCN(c2nc(OC[C@@]34CCCN3[C@H](COc3cc(C(F)(F)F)ncn3)CC4)nc(N3CC4(C3)SCc3sc(N)c(C#N)c34)n2)C1 (racemic) | pIC50 | > 8.00 |

---

Listing of recorded pIC50 by entry.
tested_system: GST-tagged KRAS-G12D (2-169) (Homo sapiens, UniProt P01116, G12D)
Sequence (P01116 2-169 isoform P01116-2 G12D): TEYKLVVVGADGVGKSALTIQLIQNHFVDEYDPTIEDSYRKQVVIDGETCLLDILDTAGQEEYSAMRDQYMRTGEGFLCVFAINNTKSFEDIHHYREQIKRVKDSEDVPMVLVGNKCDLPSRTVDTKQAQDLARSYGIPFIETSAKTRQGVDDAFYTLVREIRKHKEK
assay_explanation: Nucleotide exchange assay (NEA), SOS-mediated, HTRF, KRAS G12D
Format: biochemical
experimental_parameters: Table 4; IC50 extracted at 30 min; 20 nM SOScat; read-out: NEA G12D IC50
pIC50: −log10 of the molar value.

| compound | tested_system | pIC50 |
| --- | --- | --- |
| CC(c1nsnc1N)N(C)c1nc(OC[C@@]23CCCN2C[C@H](F)C3)nc(N2CC3(C2)SCc2sc(N)c(C#N)c23)n1 (single isomer, unassigned) [Compound 184A] | GST-tagged KRAS-G12D (2-169) (Homo sapiens, UniProt P01116, G12D) | > 8.00 |
| CC(c1ccnnc1N)N(C)c1nc(OC[C@@]23CCCN2C[C@H](F)C3)nc(N2CC3(CCc4sc(N)c(C#N)c43)C2)n1 (stereo partly drawn) | GST-tagged KRAS-G12D (2-169) (Homo sapiens, UniProt P01116, G12D) | > 8.00 |
| N#Cc1c(N)sc2c1C1(CN(c3nc(OC[C@@]45CCCN4C[C@H](F)C5)nc(N(CCO)CC4(C#N)CC4)n3)C1)SC2 | GST-tagged KRAS-G12D (2-169) (Homo sapiens, UniProt P01116, G12D) | > 8.00 |

---

tested_system: GST-tagged KRAS-G12D (2-169) (Homo sapiens, UniProt P01116, G12D)
assay_explanation: Nucleotide exchange assay (NEA), SOS-mediated, HTRF, KRAS G12D
Assay type: biochemical
experimental_parameters: Table 4; IC50 extracted at 30 min; 20 nM SOScat; read-out: NEA G12D IC50
pIC50: −log10 of the molar value.
observation_type: pIC50

| compound | reported_value |
| --- | --- |
| CC1(O)CCCCN(c2nc(OC[C@@]34CCCN3C[C@H](F)C4)nc(N3CC4(CCc5sc(N)c(C#N)c54)C3)n2)C1 (stereo partly drawn) [Compound 48] | 7.00 to 8.00 |
| N#Cc1c(N)sc2c1C1(CN(c3nc(OCC45CCCN4CC(F)C5)nc(N4C5CCC4C(O)C5)n3)C1)SC2 (mixture of isomers) [Compound 282] | 6.00 to 7.00 |
| N#Cc1c(N)sc2c1C1(CN(c3nc(OC[C@@]45CCCN4C[C@H](F)C5)nc(N4C5CCC4CC(=O)NC5)n3)C1)SC2 (stereo partly drawn) [Compound 271] | 4.70 to 6.00 |
| N#Cc1c(N)sc2c1C1(CN(c3nc(OC[C@@]45CCCN4C[C@H](F)C5)nc(N(CC(N)=O)Cc4cccnc4N)n3)C1)SC2 [Compound 194] | > 8.00 |
| C[C@H](c1cc(N)ncc1F)N(C)c1nc(OC[C@@]23CCCN2C[C@H](F)C3)nc(N2CC3(CCc4sc(N)c(C#N)c43)C2)n1 [Compound 142] | > 8.00 |
| CC(c1cccnc1N)N(CCC#N)c1nc(OC[C@@]23CCCN2C[C@H](F)C3)nc(N2CC3(CCc4sc(N)c(C#N)c43)C2)n1 (stereo partly drawn) [Compound 118] | > 8.00 |
| CCN(c1nc(OCC23CCC(CN(C)C2)N3C)nc(N2CC3(C2)SCc2sc(N)c(C#N)c23)n1)[C@H](C)c1cccnc1N (stereo partly drawn) [Compound 218] | 7.00 to 8.00 |
| N#Cc1c(N)sc2c1C1(CC2)CN(c2nc(OC[C@@]34CCCN3C[C@H](F)C4)nc(O[C@@H]3COC[C@@H]3O)n2)C1 (racemic) [Compound 28] | 4.70 to 6.00 |
| CN(C)CC1(COc2nc(N3CC4(C3)SCc3sc(N)c(C#N)c34)nc(N3C[C@@H](F)C[C@@](C)(O)C3)n2)CC1(F)F (stereo partly drawn) [Compound 153] | > 8.00 |
| CC(CO)N(Cc1cccnc1N)c1nc(OC[C@@]23CCCN2C[C@H](F)C3)nc(N2CC3(CCc4sc(N)c(C#N)c43)C2)n1 (stereo partly drawn) [Compound 149] | > 8.00 |
| C[C@H](c1ccc(P(C)(C)=O)cc1)N(C)c1nc(OC[C@@]23CCCN2C[C@H](F)C3)nc(N2CC3(C2)SCc2sc(N)c(C#N)c23)n1 [Compound 229] | 4.70 to 6.00 |
| C[C@@]1(O)CCCN(c2nc(OC[C@@]34CCCN3C[C@H](F)C4)nc(N3CC4(CCCc5sc(N)c(C#N)c54)C3)n2)C1 [Compound 30] | 7.00 to 8.00 |

---

tested_system: GST-tagged KRAS-G12V (2-169) (Homo sapiens, UniProt P01116, G12V)
assay_explanation: Nucleotide exchange assay (NEA), SOS-mediated, HTRF, KRAS G12V
experimental_parameters: Table 4; IC50 extracted at 90 min; 80 nM SOS
pIC50: −log10 of the molar value.
observation_type: pIC50

| compound | tested_system | reported_value |
| --- | --- | --- |
| CN(CC1(C#N)CC1)c1nc(OC[C@@]23CCCN2C[C@H](F)C3)nc(N2CCC3(CCc4sc(N)c(C#N)c43)C2)n1 (stereo partly shown) | GST-tagged KRAS-G12V (2-169) (Homo sapiens, UniProt P01116, G12V) | 4.70 to 6.00 |
| CCN(c1nc(OC[C@@]23CCCN2C[C@H](F)C3)nc(N2CC3(CCc4sc(N)c(C#N)c43)C2=O)n1)[C@H](C)c1cccnc1N (stereo partly shown) | GST-tagged KRAS-G12V (2-169) (Homo sapiens, UniProt P01116, G12V) | > 8.00 |
| CCN(c1nc(OCC2(CO)CCCN2)nc(N2CC3(C2)SCc2sc(N)c(C#N)c23)n1)[C@H](C)c1cccnc1N (stereo partly shown) | GST-tagged KRAS-G12V (2-169) (Homo sapiens, UniProt P01116, G12V) | > 8.00 |
| N#Cc1c(N)sc2c1C1(CC2)CN(c2nc(NCc3ccn[nH]3)nc(OC[C@@]34CCCN3C[C@H](F)C4)n2)C1 | GST-tagged KRAS-G12V (2-169) (Homo sapiens, UniProt P01116, G12V) | 6.00 to 7.00 |
| N#Cc1c(N)sc2c1C1(CC2)CN(c2nc(OC[C@@]34CCCN3C[C@H](F)C4)nc(N3CCCC(C#N)C(O)C3)n2)C1 (mixture of isomers) | GST-tagged KRAS-G12V (2-169) (Homo sapiens, UniProt P01116, G12V) | 7.00 to 8.00 |
| CC(CO)N(c1nc(OC[C@@]23CCCN2C[C@H](F)C3)nc(N2CC3(C2)SCc2sc(N)c(C#N)c23)n1)C1(C#N)CC1 (stereo partly shown) | GST-tagged KRAS-G12V (2-169) (Homo sapiens, UniProt P01116, G12V) | > 8.00 |
| C#CCN(c1nc(OC[C@@]23CCCN2C[C@H](F)C3)nc(N2CC3(C2)SCc2sc(N)c(C#N)c23)n1)C1(C#N)CC1 | GST-tagged KRAS-G12V (2-169) (Homo sapiens, UniProt P01116, G12V) | > 8.00 |
| N#Cc1c(N)sc2c1C1(CN(c3nc(OC[C@@]45CCCN4C[C@H](F)C5)nc(N(CC4(O)CC4)C4(C#N)CC4)n3)C1)SC2 | GST-tagged KRAS-G12V (2-169) (Homo sapiens, UniProt P01116, G12V) | 7.00 to 8.00 |
| C[C@H](c1cccnc1N)N(CC(F)F)c1nc(OC[C@@H]2C[C@@H](F)CN2C)nc(N2CC3(C2)SCc2sc(N)c(C#N)c23)n1 | GST-tagged KRAS-G12V (2-169) (Homo sapiens, UniProt P01116, G12V) | > 8.00 |
| N#Cc1c(N)sc2c1C1(CC2)CN(c2nc(OCC3(CN4CCOCC4)CC3)nc(N3CCCC4(C3)NC(=O)NC4=O)n2)C1 (stereo not shown) | GST-tagged KRAS-G12V (2-169) (Homo sapiens, UniProt P01116, G12V) | > 8.00 |
| C#CCN(CC#N)c1nc(OC[C@@]23CCCN2C[C@H](F)C3)nc(N2CC3(C2)SCc2sc(N)c(C#N)c23)n1 | GST-tagged KRAS-G12V (2-169) (Homo sapiens, UniProt P01116, G12V) | > 8.00 |
| N#Cc1c(N)sc2c1C1(CC2)CN(c2nc(OC[C@@]34CCCN3C[C@H](F)C4)nc(N3CCOCC(C#N)C3)n2)C1 (single isomer, unassigned) [Compound 91B] | GST-tagged KRAS-G12V (2-169) (Homo sapiens, UniProt P01116, G12V) | > 8.00 |
| N#Cc1c(N)sc2c1C1(CC2)CN(c2nc(OC[C@@]34CCCN3C[C@H](F)C4)nc(N(CCO)Cc3cc(F)cnc3N)n2)C1 | GST-tagged KRAS-G12V (2-169) (Homo sapiens, UniProt P01116, G12V) | > 8.00 |
